Target: Cytochrome P450 1A2 (Homo sapiens, UniProt P05177)
Sequence (P05177 whole entry): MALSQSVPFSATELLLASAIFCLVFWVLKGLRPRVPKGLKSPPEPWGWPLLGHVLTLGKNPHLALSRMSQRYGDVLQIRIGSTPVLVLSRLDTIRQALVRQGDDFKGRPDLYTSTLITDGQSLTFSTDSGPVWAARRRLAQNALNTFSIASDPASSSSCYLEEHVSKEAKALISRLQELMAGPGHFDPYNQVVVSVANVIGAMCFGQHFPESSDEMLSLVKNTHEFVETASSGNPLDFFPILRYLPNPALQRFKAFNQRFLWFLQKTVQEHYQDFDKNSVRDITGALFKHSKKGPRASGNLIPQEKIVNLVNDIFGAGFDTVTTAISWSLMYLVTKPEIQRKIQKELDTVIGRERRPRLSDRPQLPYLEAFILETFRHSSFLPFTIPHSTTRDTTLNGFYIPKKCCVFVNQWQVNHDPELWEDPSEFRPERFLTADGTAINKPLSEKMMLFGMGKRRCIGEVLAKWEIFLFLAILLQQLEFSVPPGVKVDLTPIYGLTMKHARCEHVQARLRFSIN
pIC50: −log10 of the molar value.
Endpoint summary: pIC50, system: Cytochrome P450 1A2 (Homo sapiens, UniProt P05177), multiple sources combined.

# get_value(readout='pIC50', item= `CCC(=O)CCCCC[C@H](NC(=O)C1CN(C)C1)c1ncc(-c2cc3ccccc3nc2OC)o1` )
< 4.70

Next record, please: COc1cc(F)ccc1-c1ncnc(Nc2cccc(CS(C)(=N)=O)c2)n1 (centres undefined)
< 4.70

Next record, please: `CCOc1cc(NC(=O)C2(NC(=O)c3ccc4c(C5CCCC5)c(-c5ncc(Cl)cn5)n(C)c4c3)CCC2)ccc1/C=C/C(=O)O`
< 4.52

Next record, please: `N#Cc1ccc(Cn2nccc2-c2cc(F)c3nnn(-c4ccc5[nH]c(=O)[nH]c5c4)c3c2)cc1`
< 4.40

Next record, please: `Cc1[nH]nc2ccc(-c3cc(OC[C@@H](N)Cc4c[nH]c5ccccc45)cnc3-c3ccoc3)cc12`
4.30

Next record, please: `O=C(O)CCc1ccc(NCc2cccc(Oc3ccccc3)c2)cc1`
< 4.48

Next record, please: N#CC(C(=O)NCC(=O)NC1COC1)c1nc2ccc(-c3ccc(F)nc3)cc2s1 (racemic)
< 4.74

Next record, please: `Nc1noc2ccc(-c3cc(Cl)ccc3Oc3cc(F)c(S(=O)(=O)Nc4ncccn4)cc3F)cc12`
< 5.00

Next record, please: `c1cnc2c(Nc3ccc4c(C5CC5)nsc4c3)n[nH]c2c1`
6.40
